Hello, the source for this data is the domain aggregation screens of Martell et al. (2025), in case you need it.

test: soluble fraction after stress (log2 fold change); higher = more stays soluble; pooled small domains, quantitative proteomics; details: stress: pH 4
Label rule, in plain words: soluble fraction (log2) of 0.2 and up is rule met, under 0.2 is rule not met.

{"columns": ["Biopolymer sequence", "Classification"],
 "data": [
  ["HMINRPVYVPLYTNLDVKDAAEIAEKLEENNIAYKLEDQGETILVNPEQKYKVRLMLAQEGLPKG", "rule not met"],
  ["HMMKLSKRQEQIIAVVKEHQPVSGERISDILAVSRATLRSDLSFLTLSGILKASPKVGYTYES", "rule met"],
  ["HMGRLPMNIVRAIVEHLDRHASYSEINRATGASKGFISKVAAAVEAASLTPEKFLLLNDEDIQNRITPGR", "rule not met"],
  ["HMSISDEDFAKLLDFVKEKWDAGELDNAEDIKAAISEGEKEFGVSLDESTRTTLASALQQLN", "rule not met"],
  ["HMKPTVKVPNVVNLSLRNAQIQLQNYGLEVGSISYESSRFKNAVLRQSISEGSVVEKGTTINLVISDGL", "rule not met"],
  ["HMGNIADARRDASYVFLIGEWAKSSNLTEKKLAGLIQSNHLDIKYGITVTDVIADIRKYKNDPTYNPF", "rule met"],
  ["HMRFKPLAEILAAVQTRYAGRVLDVELDRDQAGRNVYEVKLLAADGSRREIHIDAVTGKEVSL", "rule not met"],
  ["HMSQPLYWQIRRMVIDHDDANDVLQNTFIKAWSNIGSFRGDAKFSTWLYKIAVNESITFINKKKVQN", "rule not met"]
]}

----------
experiment: soluble fraction after stress (log2 fold change); higher = more stays soluble; pooled small domains, quantitative proteomics; settings: stress: pH 4
Label rule, in plain words: soluble fraction (log2) of 0.006 and up is YES, under 0.006 is NO.

{"columns": ["Biopolymer sequence", "Classification"],
 "data": [
  ["HMSNWYKNNETDQIWWKDTPDSVGEWLFSFDKKQVFNMFADYPHNLTPEQKKIFDEENPEWSDRP", "NO"],
  ["HMITKEDVANKKVNLLFFGNFHKMKLPDFEWGITEMMQDRDYLYGSLTKDLYFLGLVLDRKYKI", "YES"],
  ["HMSSDKVWSFEASGKQLQASYVAFENETVYLRASEDGSLLQFPLTDFGMKDQLVVLELYELSAKINRSN", "NO"],
  ["HMTISPYTKDDFLKGTKPFEDVYAHKADPFVHDRALEQMTIWAKSVGVNGFKKLYKAYIDSLRIKNKEI", "YES"],
  ["HMNTELSPKVWDVVQEFILYRKEIKAPMTEHAVKLLIGQLQKLSSDPDEQIEILRQSIVNGWKGIFSLK", "NO"],
  ["HMELLPFEFARANRVLLRVNESDLVVSPDANHSAVTEILRLNNNIETIKSVDAEAFDKILSSIYSG", "NO"],
  ["HMYAHTPEMEAMNELGLEPPVTLDEIKKTYKTLVKKYHPDHNKEDPEAEEKLKKVNMAYTILKVAYTEFEK", "YES"],
  ["HMFPDLSPEQQRIVDVLTKSNDLQLNQLSVKTGIPIGDITSILFQMEMMGVVKPMAGGNYHLL", "NO"]
]}

----------
assay: soluble fraction after stress (log2 fold change); higher = more stays soluble; pooled small domains, quantitative proteomics; conditions: stress: pH 4
Readings of soluble fraction (log2) for the listed sequences

{"columns": ["Biopolymer sequence", "soluble fraction (log2)"],
 "data": [
  ["HMKLTINIDAAHDGKTIKQLFAEKGYSLELIKKFKYDGAIEVNGERKTVRWVLREGDLLVLEAN", -0.683],
  ["HMKVQEVDYGTFLTMVDEGKVNQVDIENSKQITFNTKGDKNKVYITGQVNDPELVNRLYKAGVEFSQEIP", -0.674],
  ["HMETYHIQMKGDPSKGIVGFSQLDMVIDKIKRLETEKGIAPYELEVLDGDTMEKYSGEEFLTMHE", -1.21],
  ["HMARHIHFEVHVQQAGRWSIHAQFGAGQREKAIEEAKKIEKTPGFDSVKVVKETYDSDLGNHQDTTIYRGP", 0.0508],
  ["HMTQGRVTGDGVNVRSQPNTDSAILTRVSTGKVVELISLKDNWYNVVVNGTKGYIRADYVSPYDG", 0.00816],
  ["HMNIIMLGEFIKEQRIKRKMTQEYLASELGISRPTYSQIELGTRELTIPEARKMAAIFNISLEDFLAEKE", 0.149],
  ["HMYSRQRDLILKALRENVVHPTADFIYTVLKEKEPNLSLATVYRNLNLLANEGIIRKIEGLDGVAHFDH", 0.059],
  ["HMTAAPEVRVEGLFKGAAVLKIDGQQVMLKKGRSHSSGVTLVDANAHRAIVEIDGQRHELALHMA", 0.0925]
]}
